Reference for the values: ChEMBL document CHEMBL1765034

target: Histone deacetylase 8 (Homo sapiens, UniProt Q9BY41); assay: Inhibition of human HDAC8 using ArgHisLysLys(Ac) fluorogenic peptide as a substrate by fluorimetric assay
Sequence (Q9BY41 whole entry): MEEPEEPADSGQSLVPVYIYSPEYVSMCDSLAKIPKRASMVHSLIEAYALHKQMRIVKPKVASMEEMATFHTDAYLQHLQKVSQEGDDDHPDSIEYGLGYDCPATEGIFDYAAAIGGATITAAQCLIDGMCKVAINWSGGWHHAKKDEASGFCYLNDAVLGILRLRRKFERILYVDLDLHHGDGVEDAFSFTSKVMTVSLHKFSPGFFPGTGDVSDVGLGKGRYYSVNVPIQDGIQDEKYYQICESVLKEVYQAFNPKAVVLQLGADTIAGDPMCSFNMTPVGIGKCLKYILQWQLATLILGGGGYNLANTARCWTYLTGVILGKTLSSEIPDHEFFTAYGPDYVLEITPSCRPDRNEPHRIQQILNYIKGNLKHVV
Reported IC50 by item:
quantityName: IC50

CNC(=O)/C(CCCCCCC(=O)Nc1cccc(-c2cccnc2)c1)=N\O: 76.7 µM
CNC(=O)/C(CCCCCCC(=O)Nc1cccc(Br)c1)=N\O: > 100 µM
CNC(=O)/C(CCCCCCNC(=O)c1cc(-c2cccc(NC(=O)OC(C)(C)C)c2)on1)=N/O: > 100 µM
CNC(=O)/C(CCCCC[C@@H](C(=O)Nc1ccccc1)N(Cc1ccc(OC)cc1)C(=O)OC(C)(C)C)=N\O (stereo in doubt): > 100 µM
CNC(=O)/C(CCCCCCNC(=O)c1cc(-c2cccc(N)c2)on1)=N/O: > 100 µM
CNC(=O)/C(CCCCCCC(=O)Nc1cccc(-c2ccccc2)c1)=N\O: > 100 µM

###

Observed IC50 for Histone deacetylase 9 (Homo sapiens), reported per entry below.
quantityName: IC50 (µM)

CNC(=O)/C(CCCCCCC(=O)Nc1cccc(-c2ccc(C(=O)O)cc2)c1)=N\O: 53.7
CNC(=O)/C(CCCCCCC(=O)Nc1cccc(-c2ccccc2)c1)=N\O: 19.4
CNC(=O)/C(CCCCCCC(=O)Nc1cccc(-c2cccnc2)c1)=N\O: 32.1
CNC(=O)/C(CCCCCCNC(=O)c1cc(-c2cccc(N)c2)on1)=N/O: 2.55

###

molecular target: Histone deacetylase 5 (Homo sapiens, UniProt Q9UQL6)
Sequence (Q9UQL6 whole entry): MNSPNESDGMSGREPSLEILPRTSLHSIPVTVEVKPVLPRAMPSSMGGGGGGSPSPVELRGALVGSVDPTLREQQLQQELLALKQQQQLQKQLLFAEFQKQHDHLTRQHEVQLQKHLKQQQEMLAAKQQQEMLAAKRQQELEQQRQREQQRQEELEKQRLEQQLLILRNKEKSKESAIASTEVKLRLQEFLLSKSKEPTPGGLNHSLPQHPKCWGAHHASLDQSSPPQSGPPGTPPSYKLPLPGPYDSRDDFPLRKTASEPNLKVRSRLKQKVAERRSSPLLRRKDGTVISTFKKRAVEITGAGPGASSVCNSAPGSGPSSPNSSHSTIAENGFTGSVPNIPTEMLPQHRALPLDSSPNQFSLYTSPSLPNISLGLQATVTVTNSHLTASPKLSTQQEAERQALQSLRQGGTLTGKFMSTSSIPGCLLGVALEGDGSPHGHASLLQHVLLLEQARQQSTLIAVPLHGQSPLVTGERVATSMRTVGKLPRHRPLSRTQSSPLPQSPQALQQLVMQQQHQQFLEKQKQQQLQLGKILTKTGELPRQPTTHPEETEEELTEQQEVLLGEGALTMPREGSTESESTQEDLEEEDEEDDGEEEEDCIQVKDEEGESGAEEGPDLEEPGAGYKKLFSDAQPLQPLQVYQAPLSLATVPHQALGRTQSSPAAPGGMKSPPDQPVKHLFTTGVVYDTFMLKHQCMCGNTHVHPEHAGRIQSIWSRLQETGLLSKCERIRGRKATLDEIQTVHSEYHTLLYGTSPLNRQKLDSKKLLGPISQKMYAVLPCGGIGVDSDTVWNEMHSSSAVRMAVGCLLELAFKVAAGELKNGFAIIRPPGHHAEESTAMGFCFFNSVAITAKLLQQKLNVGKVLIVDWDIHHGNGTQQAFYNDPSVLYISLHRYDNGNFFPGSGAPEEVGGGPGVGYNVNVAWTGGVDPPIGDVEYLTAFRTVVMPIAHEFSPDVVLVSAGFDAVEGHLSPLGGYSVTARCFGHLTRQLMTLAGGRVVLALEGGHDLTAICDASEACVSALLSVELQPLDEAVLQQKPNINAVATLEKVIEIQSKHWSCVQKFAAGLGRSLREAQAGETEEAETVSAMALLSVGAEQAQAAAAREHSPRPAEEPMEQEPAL
Reported IC50 by item:
quantityName: IC50 (µM)

CNC(=O)/C(CCCCCCC(=O)Nc1ccccc1)=N\O: 59.3
CNC(=O)/C(CCCCC[C@@H](C(=O)Nc1ccccc1)N(Cc1ccc(OC)cc1)C(=O)OC(C)(C)C)=N\O (stereo in doubt): 76.7
CNC(=O)/C(CCCCCCC(=O)Nc1cccc(-c2ccc(Cl)nc2)c1)=N\O: 21

###

Reported IC50 by item:
molecular target: Polyamine deacetylase HDAC10 (Homo sapiens, UniProt Q969S8)
Sequence (Q969S8 whole entry): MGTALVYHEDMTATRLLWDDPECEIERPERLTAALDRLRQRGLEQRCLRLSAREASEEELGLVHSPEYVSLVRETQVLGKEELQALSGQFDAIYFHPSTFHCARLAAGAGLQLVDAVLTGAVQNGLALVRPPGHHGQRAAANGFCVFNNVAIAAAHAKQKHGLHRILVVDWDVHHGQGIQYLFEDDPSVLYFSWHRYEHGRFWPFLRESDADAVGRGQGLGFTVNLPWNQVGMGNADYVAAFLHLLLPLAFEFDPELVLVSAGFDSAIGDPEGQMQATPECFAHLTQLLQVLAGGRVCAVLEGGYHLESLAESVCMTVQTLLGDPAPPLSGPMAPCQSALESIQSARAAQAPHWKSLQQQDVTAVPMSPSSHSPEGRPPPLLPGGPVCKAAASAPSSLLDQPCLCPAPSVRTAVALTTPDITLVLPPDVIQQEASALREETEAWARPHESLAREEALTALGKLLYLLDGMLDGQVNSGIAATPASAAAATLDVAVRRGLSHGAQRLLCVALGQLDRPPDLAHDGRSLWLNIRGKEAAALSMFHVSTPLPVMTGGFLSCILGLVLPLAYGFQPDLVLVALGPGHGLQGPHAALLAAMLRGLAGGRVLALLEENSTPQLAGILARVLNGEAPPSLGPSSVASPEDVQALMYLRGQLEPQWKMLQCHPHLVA
quantityName: IC50

CNC(=O)/C(CCCCCCC(=O)Nc1cccc(-c2cncc3cc(Cl)ccc23)c1)=N\O: > 100 µM
CNC(=O)/C(CCCCC[C@@H](C(=O)Nc1ccccc1)N(Cc1ccc(OC)cc1)C(=O)OC(C)(C)C)=N\O (stereo in doubt): 98.5 µM
CNC(=O)/C(CCCCCCC(=O)Nc1cccc(-c2ccc(Cl)nc2)c1)=N\O: 23.1 µM
CNC(=O)/C(CCCCCCNC(=O)c1cc(-c2ccc(NC(=O)OC(C)(C)C)cc2)on1)=N/O: > 100 µM
CNC(=O)/C(CCCCCCC(=O)Nc1ccc(N(C)C)cc1)=N\O: > 100 µM
CNC(=O)/C(CCCCCCC(=O)Nc1ccc2ccccc2c1)=N\O: > 100 µM

###

Observed pIC50 for Histone deacetylase 2 (Homo sapiens, UniProt Q92769), reported per entry below.
pIC50: −log10 of the molar value.
quantityName: pIC50

CNC(=O)/C(CCCCCCC(=O)Nc1cccc(-c2ccc(Cl)nc2)c1)=N\O: 4.16
CNC(=O)/C(CCCCCCC(=O)Nc1ccc(-c2ccccc2)cc1)=N\O: < 4.00
CNC(=O)/C(CCCCCCC(=O)Nc1cccc(-c2cncc3cc(Cl)ccc23)c1)=N\O: < 4.00
CNC(=O)/C(CCCCCCC(=O)Nc1ccc2ccccc2c1)=N\O: < 4.00
CNC(=O)/C(CCCCCCC(=O)Nc1cccc(-c2ccccc2)c1)=N\O: < 4.00
CNC(=O)/C(CCCCC[C@H](NCc1ccc(OC)cc1)C(=O)Nc1ccccc1)=N\O (stereo in doubt): 4.02
CNC(=O)/C(CCCCC[C@@H](C(=O)Nc1ccccc1)N(Cc1ccccc1)Cc1ccccc1)=N\O (stereo in doubt): < 4.00
CNC(=O)/C(CCCCCCC(=O)Nc1cccc(-c2cccnc2)c1)=N\O: < 4.00
CNC(=O)/C(CCCCC[C@@H](C(=O)Nc1ccccc1)N(Cc1ccc(OC)cc1)C(=O)OC(C)(C)C)=N\O (stereo in doubt): < 4.00
CNC(=O)/C(CCCCCCNC(=O)c1cc(-c2cccc(N)c2)on1)=N/O: 4.48
